target: ABCC6 WT (Homo sapiens, UniProt O95255); experiment: ABCC6 WT assay: HiBit protein expression; conditions: HEK-293 cells transiently expressing HiBit-tagged ABCC6 WT; 24 h treatment; top concentration 20 μM; read-out: ABCC6 WT EC50, Emax
Sequence (O95255 whole entry): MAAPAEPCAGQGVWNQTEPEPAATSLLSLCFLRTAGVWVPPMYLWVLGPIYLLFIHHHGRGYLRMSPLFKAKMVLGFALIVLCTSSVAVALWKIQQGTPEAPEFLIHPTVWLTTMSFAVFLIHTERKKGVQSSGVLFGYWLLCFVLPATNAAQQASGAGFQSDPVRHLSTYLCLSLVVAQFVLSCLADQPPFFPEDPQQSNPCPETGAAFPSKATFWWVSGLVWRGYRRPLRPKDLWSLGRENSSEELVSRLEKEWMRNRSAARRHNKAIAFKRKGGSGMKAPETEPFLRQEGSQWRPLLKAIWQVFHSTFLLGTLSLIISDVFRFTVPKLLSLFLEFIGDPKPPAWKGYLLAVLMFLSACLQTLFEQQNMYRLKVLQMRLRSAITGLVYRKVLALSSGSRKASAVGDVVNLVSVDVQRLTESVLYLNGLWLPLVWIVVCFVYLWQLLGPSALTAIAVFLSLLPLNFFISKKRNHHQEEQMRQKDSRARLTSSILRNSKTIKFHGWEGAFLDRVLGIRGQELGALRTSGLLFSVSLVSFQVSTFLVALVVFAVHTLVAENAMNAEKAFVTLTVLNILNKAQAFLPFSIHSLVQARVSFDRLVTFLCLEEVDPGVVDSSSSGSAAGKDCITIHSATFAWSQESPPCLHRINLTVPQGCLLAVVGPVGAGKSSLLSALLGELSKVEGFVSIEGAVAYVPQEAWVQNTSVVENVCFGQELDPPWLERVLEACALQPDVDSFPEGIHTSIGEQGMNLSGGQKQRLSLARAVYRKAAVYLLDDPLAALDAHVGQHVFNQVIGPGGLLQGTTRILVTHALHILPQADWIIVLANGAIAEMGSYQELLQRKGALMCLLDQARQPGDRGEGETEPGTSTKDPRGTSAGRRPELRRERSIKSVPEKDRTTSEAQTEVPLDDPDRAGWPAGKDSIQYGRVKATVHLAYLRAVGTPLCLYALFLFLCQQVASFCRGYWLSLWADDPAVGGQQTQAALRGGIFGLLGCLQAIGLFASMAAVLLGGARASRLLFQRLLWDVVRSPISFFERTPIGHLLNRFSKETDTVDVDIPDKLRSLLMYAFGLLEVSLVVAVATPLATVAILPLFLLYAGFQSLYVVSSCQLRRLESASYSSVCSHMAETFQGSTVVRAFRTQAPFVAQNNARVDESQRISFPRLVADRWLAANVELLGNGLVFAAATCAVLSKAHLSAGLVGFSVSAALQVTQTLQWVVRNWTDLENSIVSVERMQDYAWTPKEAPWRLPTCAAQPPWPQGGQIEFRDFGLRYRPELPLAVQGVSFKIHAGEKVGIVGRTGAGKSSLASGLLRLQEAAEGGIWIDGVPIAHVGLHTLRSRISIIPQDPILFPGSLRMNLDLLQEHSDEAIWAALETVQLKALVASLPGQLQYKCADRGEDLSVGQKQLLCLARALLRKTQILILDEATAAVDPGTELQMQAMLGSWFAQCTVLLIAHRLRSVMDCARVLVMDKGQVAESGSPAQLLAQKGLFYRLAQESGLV
property.measured: EC50

Query string: Query: EC50; subject: Cc1nc(C)c(Oc2nc(-c3cncc(C4CC4)c3)ccc2NS(C)(=O)=O)c(C)n1 [Compound I-193]
Result string: < 1000 nM

Query string: Query: EC50; subject: CNS(=O)(=O)c1ccc(-c2cncc(C#N)c2)nc1Oc1c(C)nc(C(F)(F)F)nc1C1CC1 [Compound I-315]
Result string: 1000 to 10000 nM

Query string: Query: EC50; subject: Cc1cc(C)c(Oc2nc(-c3cncc(Cl)c3)ccc2S(=O)(=O)NC(c2ccccn2)C(F)(F)F)c(C)c1 (single isomer, unassigned) [Compound I-80]
Result string: ≥ 25000 nM

Query string: Query: EC50; subject: Cc1cc(C)c(Oc2nc(-c3cncc(C#N)c3)ccc2N(C)S(=O)(=O)c2cccnc2)c(C2CC2)n1 [Compound I-136]
Result string: 1000 to 10000 nM

Query string: Query: EC50; subject: Cc1cc(C2CC2)nc(C2CC2)c1Oc1nc(-c2cncc(C#N)c2)ccc1S(=N)(=O)C1CC1 (stereo not drawn) [Compound I-317]
Result string: < 1000 nM

Continuing:
Query string: Query: EC50; subject: Cc1cc(C)c(Oc2nc(-c3cncc(Cl)c3)ccc2NS(C)(=O)=O)c(C2CC2)n1 [Compound I-40]
Result string: < 1000 nM

Query string: Query: EC50; subject: Cc1cc(C)c(Oc2nc(-c3cncc(Cl)c3)ccc2NS(C)(=O)=O)c(C)c1 [Compound I-55]
Result string: < 1000 nM

====

target: ABCB4 WT (Homo sapiens); assay: ABCB4 WT assay: HiBit protein expression; conditions: HEK-293 cells stably expressing HiBit-tagged ABCB4 WT; 24 h treatment; top concentration 30 μM; read-out: ABCB4 WT EC50, Emax
Sequence (P21439 whole entry): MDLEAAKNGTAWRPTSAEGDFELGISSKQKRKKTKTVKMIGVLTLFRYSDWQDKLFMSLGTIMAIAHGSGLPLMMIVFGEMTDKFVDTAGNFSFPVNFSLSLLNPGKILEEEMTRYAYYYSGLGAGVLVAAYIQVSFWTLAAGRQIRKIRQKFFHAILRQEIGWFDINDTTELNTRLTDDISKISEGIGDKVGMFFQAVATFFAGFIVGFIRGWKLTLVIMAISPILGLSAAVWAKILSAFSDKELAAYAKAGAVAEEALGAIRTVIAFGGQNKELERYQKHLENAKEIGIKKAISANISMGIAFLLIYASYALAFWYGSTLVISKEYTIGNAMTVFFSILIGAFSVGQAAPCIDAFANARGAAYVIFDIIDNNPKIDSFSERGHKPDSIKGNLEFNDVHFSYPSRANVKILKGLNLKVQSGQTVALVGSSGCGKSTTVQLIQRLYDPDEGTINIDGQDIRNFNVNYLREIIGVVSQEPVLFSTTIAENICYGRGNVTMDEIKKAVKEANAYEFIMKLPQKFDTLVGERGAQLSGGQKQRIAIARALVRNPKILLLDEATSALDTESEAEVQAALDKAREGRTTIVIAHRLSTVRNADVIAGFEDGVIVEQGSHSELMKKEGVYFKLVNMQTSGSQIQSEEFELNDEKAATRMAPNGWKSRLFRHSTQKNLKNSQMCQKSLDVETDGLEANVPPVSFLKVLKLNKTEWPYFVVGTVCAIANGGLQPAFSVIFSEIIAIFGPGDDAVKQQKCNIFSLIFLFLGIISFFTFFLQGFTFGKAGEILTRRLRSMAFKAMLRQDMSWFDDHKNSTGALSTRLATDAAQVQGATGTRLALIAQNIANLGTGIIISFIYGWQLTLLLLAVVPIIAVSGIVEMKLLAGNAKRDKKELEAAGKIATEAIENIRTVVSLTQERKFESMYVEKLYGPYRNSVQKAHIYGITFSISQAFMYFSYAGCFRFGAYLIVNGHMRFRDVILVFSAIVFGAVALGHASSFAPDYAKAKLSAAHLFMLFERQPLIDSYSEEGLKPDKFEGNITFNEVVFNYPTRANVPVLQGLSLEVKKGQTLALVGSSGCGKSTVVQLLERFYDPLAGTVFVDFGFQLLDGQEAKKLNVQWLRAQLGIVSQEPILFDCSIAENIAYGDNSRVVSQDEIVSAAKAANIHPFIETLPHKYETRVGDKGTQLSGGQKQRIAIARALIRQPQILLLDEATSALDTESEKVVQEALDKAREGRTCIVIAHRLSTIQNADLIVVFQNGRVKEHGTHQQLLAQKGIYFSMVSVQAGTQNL
property.measured: EC50

Query string: Query: EC50; subject: Cc1cc(C)c(Oc2nc(-c3cncc(Cl)c3)ccc2N(C)S(=O)(=O)c2cccnc2)c(C)c1
Result string: < 25 µM

Query string: Query: EC50; subject: Cc1cc(C)c(Oc2nc(-c3ccnc(C#N)c3)ccc2NS(=O)(=O)C2CC2)c(C)n1
Result string: < 1 µM

Query string: Query: EC50; subject: Cc1cc(Oc2nc(-c3cncc(C#N)c3)ccc2NS(C)(=O)=O)c(C)nc1C
Result string: < 1 µM

Query string: Query: EC50; subject: Cc1cc(C2CC2)nc(C)c1Oc1nc(-n2cnc(C#N)c2)ccc1NS(C)(=O)=O
Result string: < 25 µM

Query string: Query: EC50; subject: Cc1cc(C(F)(F)F)nc(C2CC2)c1Oc1nc(-c2cncc(C#N)c2)ccc1S(=O)(=O)NC1CCOCC1
Result string: ≥ 25 µM

Query string: Query: EC50; subject: Cc1cc(C(F)(F)F)nc(C2CC2)c1Oc1nc(-c2cncc(C#N)c2)ccc1S(=O)(=O)Nc1cccnc1
Result string: 10 to 25 µM

Query string: Query: EC50; subject: Cc1cc(C)c(Oc2nc(-c3cncc(C#N)c3)ncc2NS(C)(=O)=O)c(C)c1
Result string: ≥ 25 µM

Query string: Query: EC50; subject: Cc1cc(C(F)(F)F)nc(C)c1Oc1nc(-c2cncc(C3COC3)c2)ccc1NS(C)(=O)=O
Result string: < 1 µM
